- measured-on: Scavenger receptor class B member 1 (Mus musculus)
- procedure-details: mouse SR-BI DiI-HDL uptake blockers – ldlA[mSR-BI] cells, fluorescence, cherry pick, dose response (AID 493194);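 further: CHO cells lacking LDL receptor and overexpressing mouse SR-BI; cellular uptake of fluorescently labeled HDL measured as cell fluorescence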
- recorded-conditions: CHO ldlA[mSR-BI] DiI-HDL uptake fluorescence, 3 h; series mostly up to 35 µM
Potency and affinity values are given separately. Records with an inconclusive call do not appear. Calls of active or inactive are those of the source.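 How the source made its calls: active means a valid curve of falling signal whose half-effect concentration is at most ten times the top tested dose; inconclusive means flat curve at 30 to 70% inhibition, or poor fit; inactive means signal rise, flat within 30%, or potency beyond limit.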
measure-name: outcome

1) COC(=O)C1=CN(c2ccc(F)c(F)c2)C=C(C(=O)OC)C1c1ccc([N+](=O)[O-])cc1 : inactive
2) Cc1ccccc1C(=O)NC1CC2CCCC(C1)N2C(=O)Nc1ccccc1 (stereo not drawn) : inactive
3) CC(C)(C)C(=O)Nc1sc2c(c1-c1nc3ccccc3[nH]1)CCCC2 : inactive

###

- measured-on: Scavenger receptor class B member 1 (Mus musculus) (UniProt Q61009)
- Sequence (Q61009 whole entry, looked up): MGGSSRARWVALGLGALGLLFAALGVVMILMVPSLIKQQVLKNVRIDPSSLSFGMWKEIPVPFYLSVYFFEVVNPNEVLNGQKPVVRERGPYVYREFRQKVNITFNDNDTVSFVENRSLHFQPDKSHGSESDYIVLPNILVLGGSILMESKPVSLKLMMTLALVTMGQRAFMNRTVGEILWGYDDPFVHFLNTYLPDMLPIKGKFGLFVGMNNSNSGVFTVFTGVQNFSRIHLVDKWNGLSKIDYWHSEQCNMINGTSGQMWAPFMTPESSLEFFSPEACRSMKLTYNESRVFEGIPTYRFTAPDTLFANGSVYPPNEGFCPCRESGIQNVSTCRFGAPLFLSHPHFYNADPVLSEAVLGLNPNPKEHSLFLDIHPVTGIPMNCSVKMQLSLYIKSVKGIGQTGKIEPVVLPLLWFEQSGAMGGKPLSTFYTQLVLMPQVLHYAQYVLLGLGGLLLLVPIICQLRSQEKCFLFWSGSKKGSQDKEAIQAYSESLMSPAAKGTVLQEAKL
- procedure-details: mouse SR-BI DiI-HDL uptake blockers – ldlA[mSR-BI] cells, fluorescence, cherry pick, dose response (AID 493194);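 further: CHO cells lacking LDL receptor and overexpressing mouse SR-BI; cellular uptake of fluorescently labeled HDL measured as cell fluorescence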
- recorded-conditions: CHO ldlA[mSR-BI] DiI-HDL uptake fluorescence, 3 h; series mostly up to 35 µM
Results with a measured potency or affinity are listed apart. Records with an inconclusive call do not appear. Active and inactive are the calls of the source.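 How the source made its calls: active means a valid curve of falling signal whose half-effect concentration is at most ten times the top tested dose; inconclusive means flat curve at 30 to 70% inhibition, or poor fit; inactive means signal rise, flat within 30%, or potency beyond limit.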
measure-name: outcome

# example entries with known answers
1) Cc1ccc(CNC(=O)c2ccc(N3CCC4(CC3)CC(c3cccc(Br)c3)=NO4)c([N+](=O)[O-])c2)cc1 : inactive
2) CCOC(=O)c1[nH]c2c(c1C)C(=O)CC(c1ccc(F)cc1)C2 (centres undefined) : inactive
3) O=C(CN1CCOCC1)Nc1nc(-c2ccc3c(c2)CCN3S(=O)(=O)c2ccccc2)cs1 : inactive
4) COc1ccccc1CNC(=O)C1CCC(CNC(=O)[C@@H]2Cc3ccccc3CN2)CC1 (some centres undefined) : inactive
5) COc1ccc(OC)c(CCNC(=O)c2ccc(NC3=NC4CS(=O)(=O)CC4S3)cc2)c1 (centres undefined) : inactive

# return recorded outcome for input `O=C(Nc1ccn(Cc2c(F)c(F)c(F)c(F)c2F)n1)c1ccc(COc2ccccc2Cl)cc1`
inactive

# return recorded outcome for input `Cc1ccccc1NC(=O)N(CCc1nc2ccccc2[nH]1)Cc1ccccc1`
inactive

# return recorded outcome for input `COc1cccc(-c2csc(N3CCN(C(=O)NC45CC6CC(CC(C6)C4)C5)CC3)n2)c1`
inactive

# return recorded outcome for input `CCOC(=O)CSc1c(-c2ccc(Cl)cc2)[nH]c2ccccc12`
inactive
